- system: EZH2 (Homo sapiens (Human), UniProt Q15910)
- Sequence (Q15910 whole entry): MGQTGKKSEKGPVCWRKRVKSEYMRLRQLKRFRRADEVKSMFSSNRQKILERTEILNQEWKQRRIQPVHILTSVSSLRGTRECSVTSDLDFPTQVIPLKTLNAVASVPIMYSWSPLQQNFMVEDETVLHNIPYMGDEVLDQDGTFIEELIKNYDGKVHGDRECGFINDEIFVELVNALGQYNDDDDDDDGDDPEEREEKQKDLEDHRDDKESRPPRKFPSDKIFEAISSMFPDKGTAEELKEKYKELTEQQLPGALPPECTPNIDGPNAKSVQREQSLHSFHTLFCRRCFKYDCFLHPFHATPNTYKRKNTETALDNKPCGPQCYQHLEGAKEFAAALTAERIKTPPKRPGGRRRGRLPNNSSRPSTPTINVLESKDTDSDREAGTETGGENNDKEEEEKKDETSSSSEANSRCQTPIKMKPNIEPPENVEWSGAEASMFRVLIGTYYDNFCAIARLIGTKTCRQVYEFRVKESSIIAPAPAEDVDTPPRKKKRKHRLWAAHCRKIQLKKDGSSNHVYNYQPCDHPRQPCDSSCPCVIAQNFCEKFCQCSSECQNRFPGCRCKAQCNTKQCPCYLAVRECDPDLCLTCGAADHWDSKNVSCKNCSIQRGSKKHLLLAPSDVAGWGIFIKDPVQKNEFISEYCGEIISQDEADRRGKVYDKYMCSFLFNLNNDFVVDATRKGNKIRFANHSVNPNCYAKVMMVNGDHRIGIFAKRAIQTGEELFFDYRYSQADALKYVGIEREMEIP
- Sequence (O75530 whole entry partner): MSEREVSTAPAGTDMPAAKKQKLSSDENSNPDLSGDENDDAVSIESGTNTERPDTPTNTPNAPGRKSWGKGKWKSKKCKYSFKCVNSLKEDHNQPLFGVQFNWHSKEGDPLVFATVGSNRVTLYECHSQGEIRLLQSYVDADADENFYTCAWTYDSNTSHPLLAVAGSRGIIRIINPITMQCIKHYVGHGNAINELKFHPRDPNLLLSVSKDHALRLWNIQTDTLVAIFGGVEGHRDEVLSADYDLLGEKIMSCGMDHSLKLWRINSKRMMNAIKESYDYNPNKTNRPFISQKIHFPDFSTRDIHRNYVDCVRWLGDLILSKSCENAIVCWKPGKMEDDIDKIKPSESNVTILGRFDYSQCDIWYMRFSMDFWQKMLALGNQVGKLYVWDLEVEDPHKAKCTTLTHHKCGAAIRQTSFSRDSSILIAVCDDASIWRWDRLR
- Sequence (Q15022 whole entry partner): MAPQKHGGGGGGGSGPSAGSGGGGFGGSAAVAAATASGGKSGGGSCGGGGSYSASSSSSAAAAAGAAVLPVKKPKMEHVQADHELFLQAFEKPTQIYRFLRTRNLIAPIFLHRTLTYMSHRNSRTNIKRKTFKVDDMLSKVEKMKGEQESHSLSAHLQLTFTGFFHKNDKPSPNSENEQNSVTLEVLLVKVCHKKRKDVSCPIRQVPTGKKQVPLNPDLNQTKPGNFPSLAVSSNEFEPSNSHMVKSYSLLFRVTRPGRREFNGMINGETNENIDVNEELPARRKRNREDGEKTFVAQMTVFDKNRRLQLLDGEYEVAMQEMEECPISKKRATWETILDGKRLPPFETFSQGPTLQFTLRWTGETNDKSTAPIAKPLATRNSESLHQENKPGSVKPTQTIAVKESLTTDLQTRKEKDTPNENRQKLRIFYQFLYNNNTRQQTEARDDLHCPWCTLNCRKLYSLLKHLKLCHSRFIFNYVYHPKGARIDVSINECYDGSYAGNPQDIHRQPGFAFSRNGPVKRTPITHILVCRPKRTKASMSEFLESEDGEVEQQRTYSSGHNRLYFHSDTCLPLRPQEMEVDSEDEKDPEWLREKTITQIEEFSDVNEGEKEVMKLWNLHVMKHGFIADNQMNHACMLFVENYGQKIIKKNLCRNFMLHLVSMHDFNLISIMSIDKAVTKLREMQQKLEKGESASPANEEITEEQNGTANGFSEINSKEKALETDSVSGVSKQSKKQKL
- Sequence (Q09028 whole entry partner): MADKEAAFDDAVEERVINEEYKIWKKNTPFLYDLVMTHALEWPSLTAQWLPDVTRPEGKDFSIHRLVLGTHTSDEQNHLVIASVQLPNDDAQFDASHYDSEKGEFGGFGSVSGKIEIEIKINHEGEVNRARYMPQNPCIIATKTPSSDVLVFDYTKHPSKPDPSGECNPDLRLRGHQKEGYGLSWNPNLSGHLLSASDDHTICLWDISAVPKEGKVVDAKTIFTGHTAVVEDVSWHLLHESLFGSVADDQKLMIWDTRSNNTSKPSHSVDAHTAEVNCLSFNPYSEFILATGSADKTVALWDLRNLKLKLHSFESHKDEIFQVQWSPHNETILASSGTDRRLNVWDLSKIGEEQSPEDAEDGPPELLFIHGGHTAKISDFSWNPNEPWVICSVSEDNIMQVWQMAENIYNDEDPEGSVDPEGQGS
- measurement-protocol: E-cadherin promoter luciferase reporter gene primary screening in 293T cells
- Assay type: cell-based
- setup-conditions: compound 10 μM, 293T cells treated for 24 hours, Dual-Glo luciferase
Entries and their 10 μM relative fluorescence intensity values follow.

{"columns": ["smiles-structure", "10 μM relative fluorescence intensity"],
 "data": [
  ["CCN(C(=O)C1CCCC1)c1cc(-c2ccc(OCCCN3CCOCC3)cc2)cc(C(=O)NCc2c(C)cc(C)[nH]c2=O)c1C", 231.21],
  ["CCN(C(=O)C1CCCC1)c1cc(-c2ccc(C#N)c(F)c2)cc(C(=O)NCc2c(C)cc(C)[nH]c2=O)c1C", 310],
  ["CCN(C(=O)C1CCCC1)c1cc(-c2ccc(OCCCN3CCOCC3)c(F)c2)cc(C(=O)NCc2c(C)cc(C)[nH]c2=O)c1C", 234.50],
  ["CCN(C(=O)C1CCCC1)c1cc(-c2ccc(N3CCN(C)CC3)nc2)cc(C(=O)NCc2c(C)cc(C)[nH]c2=O)c1C", 312.36]
]}
